tested on: P388 leukemia ip, CD2F1 mice, survival T/C; assay: NCI In Vivo Anticancer Drug Screen. Data for tumor model P388 Leukemia (intraperitoneal) in CD2F1 (CDF1) mice; details: endpoint: median survival time; dose: 12.5 mg/kg/injection; schedule: Q01DX009 (ip); vehicle: Klucel (hydroxypropylcellulose) (HPC); higher = longer survival
Toxic doses and inconclusive results are not listed.
This listing pairs compounds with measured T/C.

// known answers, use as guide
> print(dat)
                                   compound          reported
1  NC1CC2CCCCC2CC1(O)c1ccccc1 (stereo unspecified)   98 % of control
2  CC#CC#C/C=C1/C=CC2(CC=CO2)O1 (stereo unspecified)  107 % of control

QUERY: Jot down T/C (P388 leukemia ip, CD2F1 mice, survival T/C) of "COc1ccc(-c2sc(/N=C/c3ccc(N(C)CCC#N)cc3)c(C#N)c2C)cc1OC" .
RESULT: 91 % of control

QUERY: Jot down T/C (P388 leukemia ip, CD2F1 mice, survival T/C) of "COc1ccc([N+]([O-])=NC#N)cc1" .
RESULT: 95 % of control

QUERY: Jot down T/C (P388 leukemia ip, CD2F1 mice, survival T/C) of "CSc1cnc(N)s1" .
RESULT: 108 % of control

QUERY: Jot down T/C (P388 leukemia ip, CD2F1 mice, survival T/C) of CCCCCCCCCCCC[N+](C)(C)C (tested in a mixture with another compound) .
RESULT: 114 % of control
